Here the recorded protein stability index is given for each entry.
B1: BTBD1 (parent)
chain: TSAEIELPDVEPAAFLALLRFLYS

variants of: B1; assay: protein stability index of a GFP-peptide fusion (GPS, HEK-293T) (PSI 1-6); higher = more stable; conditions: c terminus: a fixed tail appended;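 also: lentivirally expressed fusions sorted by FACS into six bins by GFP to DsRed ratio, PSI derived from sequencing read proportions per bin multiplied by bin number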

- Variant Label: "F15I"
  protein stability index: 1.95
- Variant Label: "A17F"
  protein stability index: 1.98
- Variant Label: "F21V"
  protein stability index: 2.01
- Variant Label: "L19H"
  protein stability index: 2.05
